Where these numbers come from: the supplement of paper PMC10567573

Please provide measured protein stability index for the entries that follow.
B1: GFOD1 (parent)
chain: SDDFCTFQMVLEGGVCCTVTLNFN

Variants of: B1
ASSAY REMARKS: protein stability index of a GFP-peptide fusion (GPS, HEK-293T) (PSI 1-6); higher = more stable;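 further: lentivirally expressed fusions sorted by FACS into six bins by GFP to DsRed ratio, PSI derived from sequencing read proportions per bin multiplied by bin number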
SETTINGS: c terminus: a fixed tail appended
Numbers only.

SEQ STRING | OBSERVED RESULT
SDDFCTFQMVLEGGVCCTVTLQFN [N22Q] | 4.04

Your task in this section: give protein stability index for each listed record.
1. SDDFCTFQFVLEGGVCCTVTLNFN [M9F]
2. SDDFCTFQMVREGGVCCTVTLNFN [L11R]

1. 2.5
2. 3.43

Your task in this section: give protein stability index for each listed record.
1. SDDFCTFQMVLEGGVCCTLTLNFN [V19L]
2. NDDFCTFQMVLEGGVCCTVTLNFN [S1N]
3. SDDFCTFQMVLEGGVCCIVTLNFN [T18I]
4. SDDFCTFQYVLEGGVCCTVTLNFN [M9Y]
5. SDDFCTFQMVLEGGVCCTVTLLFN [N22L]

1. 3.49
2. 2.42
3. 3.52
4. 2.76
5. 2.04
